system: PBMC; test: 193 ssRNA 4mer-motif library screen: IL-12 (IL-12p40) production in PBMC of six donors, poly-L-Arg complexation, ELISA at 44 hours, IL-12 index and adjusted IL-12 index; assay type: cell-based, human; parameters: key: IL-12 index (ratio to 9.2sense) minus donor mean, averaged over 6 donors; conditions: 193 ssRNA oligonucleotide library; data from six individual donors summarized; ascending order
value.kind: Adjusted IL-12 index Mean

Examples with answers:
residue.sequence	result
AAAAAAACGGCAAAAAAAA (RNA, backbone not given here) [ANP-Oligo 080]	−0.65
AAAAAAAGUCGAAAAAAAA (RNA, backbone not given here) [ANP-Oligo 138]	0.02
AAAAAAACCAUAAAAAAAA (RNA, backbone not given here) [ANP-Oligo 064]	−0.38
AAAAAAACUUCAAAAAAAA (RNA, backbone not given here) [ANP-Oligo 095]	−0.39
AAAAAAACCCGAAAAAAAA (RNA, backbone not given here) [ANP-Oligo 066]	−0.62

Look up Adjusted IL-12 index Mean: AAAAAAAUAGUAAAAAAAA (RNA, backbone not given here) [ANP-Oligo 154]
1.57

Look up Adjusted IL-12 index Mean: AAAAAAAGAACAAAAAAAA (RNA, backbone not given here) [ANP-Oligo 098]
−0.6

Look up Adjusted IL-12 index Mean: AAAAAAAAGAUAAAAAAAA (RNA, backbone not given here) [ANP-Oligo 028]
−0.32

Look up Adjusted IL-12 index Mean: AAAAAAACAUUAAAAAAAA (RNA, backbone not given here) [ANP-Oligo 061]
−0.23

Look up Adjusted IL-12 index Mean: AAAAAAAUCAUAAAAAAAA (RNA, backbone not given here) [ANP-Oligo 160]
0.1

Ref: patent US8815503B2
